Assay: ATG_PXRE_CIS: Attagene CIS-FACTORIAL HepG2 Assay for human Pregnane X Receptor Element (PXRE) (AID 2282957)
Conditions: HepG2 Attagene CIS-FACTORIAL PXRE reporter, mRNA; actives raise or lower the signal
Activity calls are given as the source filed them. Rule for the calls: active = hit-call score of the fitted dose curve at least 0.9, where 1 is the maximum; inactive = score below 0.9.
Your reply should match one of these outcome classes. active, inactive

Example cases with answers are listed next.
C=CCOC(=O)c1ccccc1C(=O)OCC=C: active
CC(=O)C(C)=CC1C(C)=CCCC1(C)C (stereo unspecified): active
Oc1ccc2c(c1)OC[C@@H](N1CCC(O)(c3ccc(F)cc3)CC1)[C@H]2O: active

Hi team, can someone confirm the assay call for CCNc1cccc(C)c1 ? inactive

Now give it for C[C@]12C=CC(=O)C=C1CC[C@@H]1[C@@H]2C(=O)C[C@@]2(C)[C@H]1CC[C@]2(O)C(=O)CO too. active

Now give it for CNCc1cc(F)ccc1Oc1ccc(Cl)c(Cl)c1 too. active
